Assay Overview: qHTS of pediatric cancer cell lines to identify multiple opportunities for drug repurposing: Primary screen for control Hh wild type fibroblast cells (AID 1347106); further: nearly all actives have a fitted effect of over 55% in size
Conditions Used: Hh wild-type fibroblast viability, CellTiter-Glo luminescence, 48 h; series mostly up to 46 µM
Inconclusive results are not listed. The source made the active and inactive calls. The call rests on the fitted dose curve; in most records, active means well fitted cell-killing curve with a large enough effect; inconclusive means small, poorly fitted or top-dose-only effect; inactive means flat fitted curve, though single readings scatter.
Please answer using one outcome listed in true for active, false for inactive

Q: Recorded test call requested for O=C(CCCN1CCN(c2ccc(F)cc2)CC1)NC1c2ccccc2CSc2ccccc21 (stereo not given)
Result: false

Q: Recorded test call requested for COc1ccc(-c2ccc3ncc4c(c3c2)n(-c2ccc(N3CCNCC3)c(C(F)(F)F)c2)c(=O)n4C)cn1
Result: true

Q: Recorded test call requested for C[C@H]1O[C@@H](n2cc(F)c(=O)[nH]c2=O)[C@H](O)[C@H]1O
Result: false

Q: Recorded test call requested for O=c1cc(-c2ccc(O)c(O)c2)oc2cc(O)cc(O)c12
Result: false

Q: Recorded test call requested for CCCCCCOC(=O)N=C(N)c1ccc(NCc2nc3cc(C(=O)N(CCC(=O)OCC)c4ccccn4)ccc3n2C)cc1
Result: false
